This collection of values is drawn from patent US12138267B2.

METHOD_DESCRIPTION: Pharmacokinetics of Compound A, plasma concentrations after IV infusion
Type: in vivo, human
STATED_CONDITIONS: both sexes, human, plasma, intravenous, low dose; read-out: range of apparent terminal t1/2
MEASURED_PARAMETER: half-life

I have this molecule here, CCCNc1nc(NCCC)nc(N(C)OC)n1 [Compound A] , and I need its recorded half-life.
180 to 419 min

====

METHOD_DESCRIPTION: Pharmacokinetics of Compound A, plasma concentrations after IV infusion
Type: in vivo, human
STATED_CONDITIONS: both sexes, human, plasma, intravenous, ENA-001 low dose, N 12; read-out: AUCinf Median
MEASURED_PARAMETER: AUC(0-inf) (ng·h/mL)
Answer with a number only, understood to be in ng·h/mL.

I have this compound here, `CCCNc1nc(NCCC)nc(N(C)OC)n1` , and I need its recorded AUC(0-inf).
2650
